Molecular target: Botulinum neurotoxin type E (Clostridium botulinum, UniProt Q00496)
Sequence (Q00496 whole entry): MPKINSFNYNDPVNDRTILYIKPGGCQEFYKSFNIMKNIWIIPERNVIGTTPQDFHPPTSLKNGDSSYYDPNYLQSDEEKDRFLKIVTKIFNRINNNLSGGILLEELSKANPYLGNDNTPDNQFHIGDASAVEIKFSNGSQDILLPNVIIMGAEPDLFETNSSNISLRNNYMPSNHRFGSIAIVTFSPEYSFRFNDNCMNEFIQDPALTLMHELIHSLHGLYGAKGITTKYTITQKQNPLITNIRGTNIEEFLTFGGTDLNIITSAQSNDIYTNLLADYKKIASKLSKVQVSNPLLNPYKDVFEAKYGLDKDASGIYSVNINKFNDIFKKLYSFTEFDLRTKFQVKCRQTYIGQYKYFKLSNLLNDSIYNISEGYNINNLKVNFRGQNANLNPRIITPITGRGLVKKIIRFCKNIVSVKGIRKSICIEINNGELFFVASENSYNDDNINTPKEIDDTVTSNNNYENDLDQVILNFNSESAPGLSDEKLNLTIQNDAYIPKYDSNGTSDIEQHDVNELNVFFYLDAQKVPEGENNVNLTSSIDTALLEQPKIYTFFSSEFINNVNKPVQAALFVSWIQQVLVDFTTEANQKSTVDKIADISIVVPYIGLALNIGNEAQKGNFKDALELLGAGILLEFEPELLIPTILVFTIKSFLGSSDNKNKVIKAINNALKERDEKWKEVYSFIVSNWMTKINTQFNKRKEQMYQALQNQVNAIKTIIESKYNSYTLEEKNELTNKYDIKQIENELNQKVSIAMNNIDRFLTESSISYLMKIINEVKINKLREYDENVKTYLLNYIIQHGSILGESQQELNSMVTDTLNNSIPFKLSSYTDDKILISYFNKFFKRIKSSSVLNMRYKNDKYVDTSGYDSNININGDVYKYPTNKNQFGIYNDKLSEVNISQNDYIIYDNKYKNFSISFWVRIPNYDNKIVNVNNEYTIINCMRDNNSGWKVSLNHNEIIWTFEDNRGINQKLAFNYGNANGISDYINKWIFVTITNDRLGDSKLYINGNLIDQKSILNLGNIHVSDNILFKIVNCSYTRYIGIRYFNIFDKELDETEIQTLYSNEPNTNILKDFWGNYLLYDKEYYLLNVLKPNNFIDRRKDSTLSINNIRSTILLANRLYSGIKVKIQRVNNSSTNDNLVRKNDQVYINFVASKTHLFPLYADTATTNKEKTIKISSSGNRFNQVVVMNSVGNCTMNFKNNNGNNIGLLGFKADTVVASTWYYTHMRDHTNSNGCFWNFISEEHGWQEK
IC50 listing for selected molecules.
Write it as a number; the unit µM goes unstated.

Study these solved cases before continuing.
>>> recorded_measurement("O=C(O)c1ccccc1C(=O)c1ccc2c(c1)Cc1ccccc1-2")
48.5
>>> recorded_measurement("Cc1cccc(NC(=O)[C@@H](CC(C)C)NS(=O)(=O)c2ccc3oc(=O)n(C)c3c2)c1C")
14.2

Qu. Recall the reported IC50 of CC[C@H](C)[C@H](NS(=O)(=O)c1ccc2oc(=O)n(C)c2c1)C(=O)Nc1cccc(C)c1C when tested on Botulinum neurotoxin type E (Clostridium botulinum, UniProt Q00496).
Ans. 16
